target: Melanocortin receptor 4 (Homo sapiens, UniProt P32245); also: assay procedure not described here
Sequence (P32245 whole entry): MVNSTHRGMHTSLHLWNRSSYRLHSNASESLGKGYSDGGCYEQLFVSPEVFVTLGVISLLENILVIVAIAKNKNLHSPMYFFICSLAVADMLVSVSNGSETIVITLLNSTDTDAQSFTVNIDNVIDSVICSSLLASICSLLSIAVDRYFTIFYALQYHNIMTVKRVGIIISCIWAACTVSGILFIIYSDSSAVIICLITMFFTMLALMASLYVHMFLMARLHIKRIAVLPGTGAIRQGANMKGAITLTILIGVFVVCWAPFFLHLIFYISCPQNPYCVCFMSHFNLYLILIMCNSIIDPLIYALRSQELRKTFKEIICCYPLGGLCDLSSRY
observable: AC50

The cases that follow already have their AC50 on record.
# molecule, observable, result
data = [
    ("CCC1(CC)C(=O)NC(=O)N(C)C1=O [METHARBITAL]", "AC50", "> 10 µM"),
    ("C=C(c1ccccc1OCc1cccc(Cl)c1)n1ccnc1 [CROCONAZOLE]", "AC50", "> 30 µM"),
]

The molecule identified as O=C(C[S+]([O-])Cc1ccco1)NC/C=C\COc1cc(CN2CCCCC2)ccn1 (stereo not drawn) [LAFUTIDINE] registered its AC50 at > 10 µM

The molecule identified as CCOC(=O)C1=C(C)NC(C)=C(C(=O)OC)C1c1cccc(Cl)c1Cl (stereo not drawn) [FELODIPINE] registered its AC50 at > 30 µM

The molecule identified as CCN(CC)C(C)C(=O)c1ccccc1 (stereo not drawn) [DIETHYLPROPION] registered its AC50 at > 30 µM

The molecule identified as CC(C(=O)O)c1ccc(C(=O)c2ccccc2)s1 (stereo not drawn) [TIAPROFENIC ACID] registered its AC50 at > 10 µM

The molecule identified as Cc1cccc(Nc2ccncc2S(=O)(=O)NC(=O)NC(C)C)c1 [TORSEMIDE] registered its AC50 at > 30 µM

The molecule identified as "CC(C)CN(C[C@@H](O)[C@H](Cc1ccccc1)NC(=O)O[C@H]1CCOC1)S(=O)(=O)c1ccc(N)cc1" registered its AC50 at > 30 µM

The molecule identified as Cc1cnc(Nc2ccc(OCCN3CCCC3)cc2)nc1Nc1cccc(S(=O)(=O)NC(C)(C)C)c1 [FEDRATINIB] registered its AC50 at > 30 µM

The molecule identified as CN(Cc1ccc(C(C)(C)C)cc1)Cc1cccc2ccccc12 [BUTENAFINE] registered its AC50 at > 10 µM

The molecule identified as CC(NC(C)(C)C)C(=O)c1cccc(Cl)c1 (stereo not drawn) [BUPROPION] registered its AC50 at > 30 µM

The molecule identified as CCN(CCO)CCCC(C)Nc1ccnc2cc(Cl)ccc12 (stereo not drawn) [HYDROXYCHLOROQUINE] registered its AC50 at > 10 µM

The molecule identified as Cc1c(C)c2c(c(C)c1O)CCC(C)(COc1ccc(CC3SC(=O)NC3=O)cc1)O2 (stereo not drawn) [TROGLITAZONE] registered its AC50 at > 30 µM

---

AC50 data for Vasopressin V1a receptor (Homo sapiens) follow.

# compound, observable, result
records = [
    ("CCOc1ccccc1OCCN[C@H](C)Cc1ccc(OC)c(S(N)(=O)=O)c1 [TAMSULOSIN]", "AC50", "> 30 µM"),
    ("OCCOCCN1CCN(C(c2ccccc2)c2ccc(Cl)cc2)CC1 (stereo unspecified) [HYDROXYZINE]", "AC50", "> 10 µM"),
    ("CCCO[C@H]1[C@@H]([C@@H](COCc2ccc(Cl)cc2)OCc2ccc(Cl)cc2)OC(OCC)[C@@H]1O (stereo partly specified) [CLOBENOSIDE]", "AC50", "> 30 µM"),
]

Entry O=C(O)[C@H]1/C(=C/CO)O[C@@H]2CC(=O)N21 [CLAVULANIC ACID] ; assay system Vasopressin V1a receptor (Homo sapiens); AC50 recorded at > 30 µM

Entry Cc1ccc(-c2ncc(Cl)cc2-c2ccc(S(C)(=O)=O)cc2)cn1 [ETORICOXIB] ; assay system Vasopressin V1a receptor (Homo sapiens); AC50 recorded at > 30 µM

Entry CN(C)CCOCC(=O)NC12CC3CC(CC(C3)C1)C2 [TROMANTADINE] ; assay system Vasopressin V1a receptor (Homo sapiens); AC50 recorded at > 30 µM

---

Measured AC50, listed per entry for reference.
target: 5-hydroxytryptamine receptor 2B (Homo sapiens); type: functional, cell-based; also: assay procedure not described here
Sequence (P41595 whole entry): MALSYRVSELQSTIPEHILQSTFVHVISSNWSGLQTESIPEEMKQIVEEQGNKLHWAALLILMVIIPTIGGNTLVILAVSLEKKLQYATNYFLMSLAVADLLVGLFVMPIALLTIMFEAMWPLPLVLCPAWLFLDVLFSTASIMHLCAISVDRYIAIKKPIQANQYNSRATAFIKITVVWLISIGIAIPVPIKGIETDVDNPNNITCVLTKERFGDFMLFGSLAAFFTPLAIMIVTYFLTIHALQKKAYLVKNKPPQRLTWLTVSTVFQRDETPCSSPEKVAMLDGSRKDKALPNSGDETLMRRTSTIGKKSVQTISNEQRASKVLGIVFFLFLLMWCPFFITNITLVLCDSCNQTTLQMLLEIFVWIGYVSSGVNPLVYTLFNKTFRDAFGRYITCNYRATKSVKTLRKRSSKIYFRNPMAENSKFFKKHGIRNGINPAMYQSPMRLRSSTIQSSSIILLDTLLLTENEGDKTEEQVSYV

# molecule, result
records = [
    ("CN1CCCN=C1/C=C/c1cccc(O)c1", "> 30 µM"),
    ("CCC[C@@]1(CCc2ccccc2)CC(O)=C([C@H](CC)c2cccc(NS(=O)(=O)c3ccc(C(F)(F)F)cn3)c2)C(=O)O1", "> 30 µM"),
    ("C[C@H](CCC(=O)O)[C@H]1CC[C@H]2[C@@H]3[C@H](O)C[C@@H]4C[C@H](O)CC[C@]4(C)[C@H]3CC[C@]12C", "> 30 µM"),
    ("CCC1(c2ccccc2)C(=O)NCNC1=O", "> 10 µM"),
    ("CCC1(C)CC(=O)NC1=O (configuration not stated) [ETHOSUXIMIDE]", "> 10 µM"),
    ("C[C@@H](Cc1ccccc1)N(C)Cc1ccccc1", "> 10 µM"),
]

Proceed to the following item.
The molecule identified as "COc1cccc2c1C(=O)c1c(O)c3c(c(O)c1C2=O)C[C@@](O)(C(=O)CO)C[C@@H]3O[C@H]1C[C@H](N)[C@H](O)[C@H](C)O1" registered its AC50 at > 10 µM

---

AC50 data for Vasopressin V2 receptor (Homo sapiens, UniProt P30518) follow.

# compound, result
records = [
    ("CC(C)(C)NCC(O)COc1cccc2c1CC(O)C(O)C2 (stereo not drawn) [NADOLOL]", "> 10 µM"),
]

Entry CC1NCCOC1c1ccccc1 (stereo not drawn) [PHENMETRAZINE] ; assay system Vasopressin V2 receptor (Homo sapiens, UniProt P30518); AC50 recorded at > 30 µM

Entry CC1(C)O[C@@H]2C[C@H]3[C@@H]4CCC5=CC(=O)C=C[C@]5(C)[C@@]4(F)[C@@H](O)C[C@]3(C)[C@]2(C(=O)CO)O1 [TRIAMCINOLONE ACETONIDE] ; assay system Vasopressin V2 receptor (Homo sapiens, UniProt P30518); AC50 recorded at > 30 µM

---

Biological target: UniProt:P35348
Sequence (P35348 whole entry): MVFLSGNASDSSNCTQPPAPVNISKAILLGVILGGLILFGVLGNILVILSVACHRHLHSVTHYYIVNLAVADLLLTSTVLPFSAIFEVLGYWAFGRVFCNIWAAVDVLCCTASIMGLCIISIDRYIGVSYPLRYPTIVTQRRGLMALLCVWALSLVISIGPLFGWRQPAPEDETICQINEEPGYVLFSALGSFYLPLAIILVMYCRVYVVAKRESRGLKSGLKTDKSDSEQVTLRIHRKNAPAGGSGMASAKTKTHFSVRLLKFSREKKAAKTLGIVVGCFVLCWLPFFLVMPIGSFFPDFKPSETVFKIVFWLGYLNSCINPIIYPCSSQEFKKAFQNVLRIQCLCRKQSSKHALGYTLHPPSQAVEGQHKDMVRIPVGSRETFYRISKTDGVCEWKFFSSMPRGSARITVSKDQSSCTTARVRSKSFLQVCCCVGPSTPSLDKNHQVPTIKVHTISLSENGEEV
Type: functional, cell-based
Measured AC50, listed per entry for reference.

The cases that follow already have their AC50 on record.
# molecule, AC50
data = [
    ("C[C@]12CC[C@@H]3c4ccc(OC(=O)N(CCCl)CCCl)cc4CC[C@H]3[C@@H]1CC[C@@H]2OP(=O)(O)O [ESTRAMUSTINE PHOSPHATE]", "> 30 µM"),
    ("O=c1[nH]c(=O)n([C@H]2C[C@H](O)[C@@H](CO)O2)cc1/C=C/Br", "> 30 µM"),
    ("CC1=C(/C=C/C(C)=C/C=C/C(C)=C\\C(=O)O)C(C)(C)CCC1", "> 30 µM"),
    ("CCCCCCCC/C=C\\CCCCCCCC(=O)O", "> 30 µM"),
    ("CC(=O)OCC(=O)[C@@]1(O)CC[C@H]2[C@@H]3C[C@H](C)C4=CC(=O)C=C[C@]4(C)[C@H]3[C@@H](O)C[C@@]21C [METHYLPREDNISOLONE ACETATE]", "> 30 µM"),
]

The molecule identified as "CCCCCCO[C@@H](C)c1cccc(-c2csc(NC(=O)c3cc(Cl)c(/C=C(\C)C(=O)O)c(Cl)c3)n2)c1OC" registered its AC50 at 13.5 µM

The molecule identified as NS(=O)(=O)c1cc2c(cc1Cl)NC(C(Cl)Cl)NS2(=O)=O (centres undefined) [TRICHLORMETHIAZIDE] registered its AC50 at > 30 µM

The molecule identified as "CCOC(=O)[C@H](CCc1ccccc1)N[C@@H](C)C(=O)N1Cc2ccccc2C[C@H]1C(=O)O" registered its AC50 at > 30 µM

The molecule identified as "Cc1ncc(CO)c(CO)c1O" registered its AC50 at > 30 µM

---

AC50 data for Neuronal acetylcholine receptor subunit alpha-4 (Homo sapiens, UniProt P43681) follow.

The cases that follow already have their AC50 on record.
# molecule, AC50
measured = [
    ("C[C@@H](Cc1ccccc1)N(C)Cc1ccccc1 [BENZPHETAMINE]", "> 10 µM"),
    ("CC1CC(OC(=O)C(O)c2ccccc2)CC(C)(C)C1 (stereo not drawn) [CYCLANDELATE]", "> 10 µM"),
    ("CCC[C@@]1(CCc2ccccc2)CC(O)=C([C@H](CC)c2cccc(NS(=O)(=O)c3ccc(C(F)(F)F)cn3)c2)C(=O)O1", "> 30 µM"),
    ("CC(=O)N1CCN(c2ccc(OCC3COC(Cn4ccnc4)(c4ccc(Cl)cc4Cl)O3)cc2)CC1 (stereo not drawn) [KETOCONAZOLE]", "> 10 µM"),
    ("N=C(N)NC(=O)Cc1c(Cl)cccc1Cl [GUANFACINE]", "> 10 µM"),
    ("CC(C)(Oc1ccc(Cl)cc1)C(=O)OCCOC(=O)c1cccnc1 [ETOFIBRATE]", "> 30 µM"),
    ("CO/N=C(\\C(=O)N[C@@H]1C(=O)N2C(C(=O)[O-])=C(C[n+]3ccc(N)n3CCO)CS[C@H]12)c1csc(N)n1 [CEFOSELIS]", "> 30 µM"),
    ("O=C(c1ccccc1)c1ccc2n1CCC2C(=O)O (stereo not drawn) [KETOROLAC]", "> 10 µM"),
    ("CCC1(C)CC(=O)NC1=O (stereo not drawn) [ETHOSUXIMIDE]", "> 10 µM"),
    ("CCCCCCOC(=O)NC(=N)c1ccc(NCc2nc3cc(C(=O)N(CCC(=O)OCC)c4ccccn4)ccc3n2C)cc1 [DABIGATRAN ETEXILATE]", "> 30 µM"),
]

The molecule identified as CC(C)(C)NCC(O)COc1cccc2c1CC(O)C(O)C2 (stereo not drawn) [NADOLOL] registered its AC50 at > 10 µM

The molecule identified as COc1ccc(-c2cc(=S)ss2)cc1 [ANETHOLTRITHION] registered its AC50 at 9.2 µM

The molecule identified as C=C(c1ccccc1OCc1cccc(Cl)c1)n1ccnc1 [CROCONAZOLE] registered its AC50 at > 10 µM
